assay: MRT (0 to t) in Kunming mouse at 10 mg/kg, iv measured upto 24 hrs by LC-MS analysis; assay type: ADME, organism-based; settings: in vivo
Property name: MRT last at 24 h
Answer shape: numeric part, then the unit.

So, OCCN(CCO)c1nccc(-n2cncn2)n1 ? Its MRT last at 24 h was 2.61 h

* * *

experiment: Cytotoxicity against human L02 cells assessed as cell viability at effective concentration measured after 24 hrs by MTT assay relative to control; type: toxicity, cell-based; settings: read-out: Activity
Property name: viability at 24 h

So, OCCN(CCO)c1nccc(-n2cncn2)n1 ? Its viability at 24 h was > 75%

* * *

tested on: Enterococcus faecalis; experiment: Antibacterial activity against Enterococcus faecalis assessed as bacterial growth inhibition incubated for 24 hrs by broth microdilution method; assay type: functional
The label criterion met is reserved for MIC strictly under 1000 µM; criterion not met covers values equal to or above it.

Hello, I'm reviewing records and need to know if MIC of O=C(c1ccccc1)N1CCN(c2nccc(-n3cncn3)n2)CC1 is below 1000 µM. Could you check?
criterion met

Hello, I'm reviewing records and need to know if MIC of Cc1nc2ccccc2n1-c1ccnc(N(CCO)CCO)n1 is below 1000 µM. Could you check?
criterion met

Hello, I'm reviewing records and need to know if MIC of CCN(CC)c1nccc(-n2cncn2)n1 is below 1000 µM. Could you check?
criterion met

Hello, I'm reviewing records and need to know if MIC of CC(C)N(c1nccc(-n2cncn2)n1)C(C)C is below 1000 µM. Could you check?
criterion not met

Hello, I'm reviewing records and need to know if MIC of Cc1cn(-c2nccc(N(CCO)CCO)n2)cn1 is below 1000 µM. Could you check?
criterion not met
